Listed here are molecules together with their documented IC50.
target: CDK12 (aa686-1082)/Cyclin K complex (Homo sapiens, UniProt Q9NYV4); construct: CDK12 (aa686-1082)/Cyclin K complex; experiment: CDK12 inhibition assay (Caliper/LabChip EZ Reader kinase assay); format: biochemical; details: Table 1; CDK12 (aa686-1082)/Cyclin K 50 nM, ATP 2 mM, 3 hr at 27° C.
Sequence (Q9NYV4 686-1082, species assumed): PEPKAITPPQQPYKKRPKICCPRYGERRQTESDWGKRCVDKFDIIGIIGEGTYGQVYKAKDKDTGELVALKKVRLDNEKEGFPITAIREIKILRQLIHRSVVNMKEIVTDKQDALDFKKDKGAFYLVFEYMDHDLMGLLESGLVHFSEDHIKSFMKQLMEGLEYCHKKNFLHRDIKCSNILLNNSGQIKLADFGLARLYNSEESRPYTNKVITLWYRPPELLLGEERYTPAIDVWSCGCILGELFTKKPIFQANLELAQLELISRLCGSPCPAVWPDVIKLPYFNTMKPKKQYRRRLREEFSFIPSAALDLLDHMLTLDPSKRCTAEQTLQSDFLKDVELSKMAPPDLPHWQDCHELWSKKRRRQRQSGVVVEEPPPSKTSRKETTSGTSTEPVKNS
Sequence (O75909 whole entry partner, species assumed, the tested form may be a part): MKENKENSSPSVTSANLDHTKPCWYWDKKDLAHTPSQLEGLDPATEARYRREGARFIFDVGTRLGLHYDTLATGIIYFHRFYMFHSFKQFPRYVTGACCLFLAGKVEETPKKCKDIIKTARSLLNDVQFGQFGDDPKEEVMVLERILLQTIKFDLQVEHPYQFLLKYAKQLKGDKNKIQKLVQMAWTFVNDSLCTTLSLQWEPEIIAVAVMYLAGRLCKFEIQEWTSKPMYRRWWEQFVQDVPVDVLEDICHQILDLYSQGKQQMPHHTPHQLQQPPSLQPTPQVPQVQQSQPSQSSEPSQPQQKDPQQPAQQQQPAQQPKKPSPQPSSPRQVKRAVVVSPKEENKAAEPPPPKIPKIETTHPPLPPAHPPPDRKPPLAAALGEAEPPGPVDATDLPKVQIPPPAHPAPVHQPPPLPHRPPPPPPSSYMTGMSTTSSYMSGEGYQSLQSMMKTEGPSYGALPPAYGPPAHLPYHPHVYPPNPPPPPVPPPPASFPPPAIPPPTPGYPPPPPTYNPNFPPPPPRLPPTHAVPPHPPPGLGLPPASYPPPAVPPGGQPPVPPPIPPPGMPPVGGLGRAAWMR

Example entries and their recorded answers appear below.
FC(F)(F)c1cnc(N[C@H]2CCCNC2)nc1-c1c[nH]c2cc(-c3ncc[nH]3)ccc12: > 5 µM
Fc1cccc(-c2ccc3c(-c4nc(N[C@H]5CCCNC5)ncc4C(F)(F)F)c[nH]c3c2)c1: > 5 µM
O=C([C@H]1CC[C@H](Nc2ncc(C(F)(F)F)c(-c3c[nH]c4ccccc34)n2)CN1)N1CCCC1: 0.2 to 5 µM

Q) IC50 for O=S(=O)(CF)c1ccc2c(-c3nc(N[C@H]4CCCNC4)ncc3C(F)(F)F)c[nH]c2c1 ?
A) 0.2 to 5 µM

###

target: CDK7/Cyclin H/MAT1 complex (Homo sapiens, UniProt P50613); assay: CDK7 inhibition assay (Caliper/LabChip EZ Reader kinase assay); assay type: biochemical; settings: Table 1; CDK7/Cyclin H/MAT1 6 nM, ATP 2 mM, 35 min at 27° C.; listed as 139
Sequence (P50613 whole entry, species assumed): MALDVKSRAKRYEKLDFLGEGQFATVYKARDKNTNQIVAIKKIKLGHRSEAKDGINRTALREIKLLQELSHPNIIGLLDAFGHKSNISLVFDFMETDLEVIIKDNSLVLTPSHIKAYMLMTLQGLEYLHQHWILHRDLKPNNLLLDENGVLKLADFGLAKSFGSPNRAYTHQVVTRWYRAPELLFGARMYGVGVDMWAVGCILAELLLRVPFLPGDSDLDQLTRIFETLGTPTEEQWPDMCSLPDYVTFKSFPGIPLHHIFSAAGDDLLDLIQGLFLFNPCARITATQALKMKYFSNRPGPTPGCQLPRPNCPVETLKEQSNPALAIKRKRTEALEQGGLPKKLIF
Sequence (P51946 whole entry partner, species assumed): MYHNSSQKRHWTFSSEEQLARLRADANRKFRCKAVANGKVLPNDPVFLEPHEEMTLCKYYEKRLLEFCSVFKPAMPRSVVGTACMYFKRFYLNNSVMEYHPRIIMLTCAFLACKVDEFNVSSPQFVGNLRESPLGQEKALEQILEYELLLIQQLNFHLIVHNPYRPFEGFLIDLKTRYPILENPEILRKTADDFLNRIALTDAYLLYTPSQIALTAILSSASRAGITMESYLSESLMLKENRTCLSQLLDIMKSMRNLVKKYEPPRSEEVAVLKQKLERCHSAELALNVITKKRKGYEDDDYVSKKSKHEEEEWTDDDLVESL
Sequence (P51948 whole entry partner, species assumed): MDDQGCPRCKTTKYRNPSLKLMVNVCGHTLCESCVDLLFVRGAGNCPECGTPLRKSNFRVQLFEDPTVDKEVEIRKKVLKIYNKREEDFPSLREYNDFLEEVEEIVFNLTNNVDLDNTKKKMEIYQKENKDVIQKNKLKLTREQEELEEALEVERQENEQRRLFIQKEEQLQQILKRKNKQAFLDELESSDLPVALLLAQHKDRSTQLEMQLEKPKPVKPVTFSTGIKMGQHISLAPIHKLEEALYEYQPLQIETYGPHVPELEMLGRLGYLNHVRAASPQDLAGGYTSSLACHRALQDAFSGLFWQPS
readoutLabel: IC50

Q) For O=c1[nH]cc(-c2ccc3c(-c4nc(N[C@H]5CCCNC5)ncc4C(F)(F)F)c[nH]c3c2)c(=O)[nH]1 [Compound 333] , what is its reported IC50?
A) 0.02 to 0.2 µM

###

In this section, each of the compounds is paired with its reported pIC50.
biological target: CDK7/Cyclin H/MAT1 complex (Homo sapiens, UniProt P50613); test: CDK7 inhibition assay (Caliper/LabChip EZ Reader kinase assay); format: biochemical; conditions: Table 1; CDK7/Cyclin H/MAT1 6 nM, ATP 2 mM, 35 min at 27° C.
pIC50: −log10 of the molar value.

Check out these entries, answers already filled in.
FC(F)(F)c1cnc(N[C@H]2CCCNC2)nc1-c1c[nH]c2c(Br)cccc12: 6.70 to 7.70
CC[C@@]1(O)CCN(C(=O)c2ccc3c(-c4nc(N[C@H]5CCCNC5)ncc4C(F)(F)F)c[nH]c3c2)C1 (single isomer, unassigned): 6.70 to 7.70

Q) Fill in the blank: the reported pIC50 of N#Cc1ccc2c(-c3nc(N[C@@H]4CNCC[C@H]4F)ncc3C(F)(F)F)c[nH]c2c1 is ____.
A) > 7.70

Q) Next compound up: CSc1cnc(N[C@H]2CCCNC2)nc1-c1c[nH]c2cc(C#N)ccc12
A) > 7.70

Q) What do we get for O=C(c1ccc2c(-c3nc(N[C@H]4CCCNC4)ncc3C(F)(F)F)c[nH]c2c1)N1CC[C@@H](O)C1 ?
A) > 7.70

Q) Query CC1(C)CCNC[C@@H]1Nc1ncc(C(F)(F)F)c(-c2c[nH]c3ccccc23)n1 (single isomer, unassigned) next
A) 5.30 to 6.70

Q) Now give it for Oc1ncccc1-c1ccc2c(-c3nc(N[C@H]4CCCNC4)ncc3C(F)(F)F)c[nH]c2c1 too.
A) > 7.70

###

target: CDK7/Cyclin H/MAT1 complex (Homo sapiens, UniProt P50613); assay: CDK7 inhibition assay (Caliper/LabChip EZ Reader kinase assay); assay type: biochemical; settings: Table 1; CDK7/Cyclin H/MAT1 6 nM, ATP 2 mM, 35 min at 27° C.; listed as 129
readoutLabel: IC50

Q) // IC50 lookup, key: CCN1C[C@@H](Nc2ncc(C(F)(F)F)c(-c3c[nH]c4cc(S(C)(=O)=O)ccc34)n2)CC(C)(C)C1 [Compound 369]
A) 20 to 200 nM
